Listed here are compounds together with their documented pIC50.
biological target: human CB1 receptor (Homo sapiens); construct: expressed in transfected cells; host or cells: SK-N-MC cells, stably transfected with pcDNA3 CB-1 (human); semi-purified membrane pellet; experiment: biochemical; assay type: binding
Sequence (P21554 whole entry): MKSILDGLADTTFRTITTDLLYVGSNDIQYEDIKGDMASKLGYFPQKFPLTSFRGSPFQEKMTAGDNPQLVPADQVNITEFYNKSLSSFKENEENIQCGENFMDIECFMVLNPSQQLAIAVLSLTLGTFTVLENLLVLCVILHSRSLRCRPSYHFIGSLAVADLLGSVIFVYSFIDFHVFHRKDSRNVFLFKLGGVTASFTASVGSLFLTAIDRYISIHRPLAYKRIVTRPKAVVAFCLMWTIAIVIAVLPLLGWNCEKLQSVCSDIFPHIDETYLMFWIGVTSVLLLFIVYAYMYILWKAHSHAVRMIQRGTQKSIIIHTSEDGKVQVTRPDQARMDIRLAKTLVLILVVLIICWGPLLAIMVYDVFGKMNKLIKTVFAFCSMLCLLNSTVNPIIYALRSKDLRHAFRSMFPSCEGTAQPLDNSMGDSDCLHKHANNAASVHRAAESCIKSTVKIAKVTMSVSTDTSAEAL
// pIC50: -log10(molar conc.)

Example entries and their recorded answers appear below.
COMPOUND	pIC50
O=C(NN1CCCC1)c1nn(-c2ccc(Cl)cc2Cl)c2c1CCCC2=Cc1ccoc1	7.41
O=C(NCC(O)C1CCCCC1)c1nn(C2CCCCC2)c2c1CCCC2 (centres unmarked)	6.05
CC(NC(=O)c1nn(C2CCCCC2)c2c1CCCC2)C1CCCCC1 (centres unmarked)	7.30
CC12CCC(C1)C(C)(C)C2NC(=O)c1nn(Cc2ccccc2)c2c1CCCC2 (centres unmarked)	10.00
C[C@@H](NC(=O)c1nn(-c2ccc(Cl)cc2Cl)c2c1CCC/C2=C\c1ccc(F)cc1)c1ccccc1	8.30
C[C@H](NC(=O)/C=C/c1nn(Cc2ccccc2)c2c1CCCC2)c1ccccc1	5.01

IN: Record request: pIC50 value, item COC(=O)C(Cc1ccc(OCc2ccccc2)cc1)NC(=O)c1nn(Cc2ccccc2)c2c1CCCC2 (centres unmarked)
OUT: 6.64

IN: Subsequent entry: "O=C(NN1CCCCCC1)c1nn(-c2ccc(Cl)cc2Cl)c2c1CCC/C2=C\c1ccoc1"
OUT: 7.89
